Entry source: patent US20250333383A1

# system name: human Nav1.7 channels (Homo sapiens)
# Construct: host or cells: HEK293
# Sequence (Q15858 whole entry): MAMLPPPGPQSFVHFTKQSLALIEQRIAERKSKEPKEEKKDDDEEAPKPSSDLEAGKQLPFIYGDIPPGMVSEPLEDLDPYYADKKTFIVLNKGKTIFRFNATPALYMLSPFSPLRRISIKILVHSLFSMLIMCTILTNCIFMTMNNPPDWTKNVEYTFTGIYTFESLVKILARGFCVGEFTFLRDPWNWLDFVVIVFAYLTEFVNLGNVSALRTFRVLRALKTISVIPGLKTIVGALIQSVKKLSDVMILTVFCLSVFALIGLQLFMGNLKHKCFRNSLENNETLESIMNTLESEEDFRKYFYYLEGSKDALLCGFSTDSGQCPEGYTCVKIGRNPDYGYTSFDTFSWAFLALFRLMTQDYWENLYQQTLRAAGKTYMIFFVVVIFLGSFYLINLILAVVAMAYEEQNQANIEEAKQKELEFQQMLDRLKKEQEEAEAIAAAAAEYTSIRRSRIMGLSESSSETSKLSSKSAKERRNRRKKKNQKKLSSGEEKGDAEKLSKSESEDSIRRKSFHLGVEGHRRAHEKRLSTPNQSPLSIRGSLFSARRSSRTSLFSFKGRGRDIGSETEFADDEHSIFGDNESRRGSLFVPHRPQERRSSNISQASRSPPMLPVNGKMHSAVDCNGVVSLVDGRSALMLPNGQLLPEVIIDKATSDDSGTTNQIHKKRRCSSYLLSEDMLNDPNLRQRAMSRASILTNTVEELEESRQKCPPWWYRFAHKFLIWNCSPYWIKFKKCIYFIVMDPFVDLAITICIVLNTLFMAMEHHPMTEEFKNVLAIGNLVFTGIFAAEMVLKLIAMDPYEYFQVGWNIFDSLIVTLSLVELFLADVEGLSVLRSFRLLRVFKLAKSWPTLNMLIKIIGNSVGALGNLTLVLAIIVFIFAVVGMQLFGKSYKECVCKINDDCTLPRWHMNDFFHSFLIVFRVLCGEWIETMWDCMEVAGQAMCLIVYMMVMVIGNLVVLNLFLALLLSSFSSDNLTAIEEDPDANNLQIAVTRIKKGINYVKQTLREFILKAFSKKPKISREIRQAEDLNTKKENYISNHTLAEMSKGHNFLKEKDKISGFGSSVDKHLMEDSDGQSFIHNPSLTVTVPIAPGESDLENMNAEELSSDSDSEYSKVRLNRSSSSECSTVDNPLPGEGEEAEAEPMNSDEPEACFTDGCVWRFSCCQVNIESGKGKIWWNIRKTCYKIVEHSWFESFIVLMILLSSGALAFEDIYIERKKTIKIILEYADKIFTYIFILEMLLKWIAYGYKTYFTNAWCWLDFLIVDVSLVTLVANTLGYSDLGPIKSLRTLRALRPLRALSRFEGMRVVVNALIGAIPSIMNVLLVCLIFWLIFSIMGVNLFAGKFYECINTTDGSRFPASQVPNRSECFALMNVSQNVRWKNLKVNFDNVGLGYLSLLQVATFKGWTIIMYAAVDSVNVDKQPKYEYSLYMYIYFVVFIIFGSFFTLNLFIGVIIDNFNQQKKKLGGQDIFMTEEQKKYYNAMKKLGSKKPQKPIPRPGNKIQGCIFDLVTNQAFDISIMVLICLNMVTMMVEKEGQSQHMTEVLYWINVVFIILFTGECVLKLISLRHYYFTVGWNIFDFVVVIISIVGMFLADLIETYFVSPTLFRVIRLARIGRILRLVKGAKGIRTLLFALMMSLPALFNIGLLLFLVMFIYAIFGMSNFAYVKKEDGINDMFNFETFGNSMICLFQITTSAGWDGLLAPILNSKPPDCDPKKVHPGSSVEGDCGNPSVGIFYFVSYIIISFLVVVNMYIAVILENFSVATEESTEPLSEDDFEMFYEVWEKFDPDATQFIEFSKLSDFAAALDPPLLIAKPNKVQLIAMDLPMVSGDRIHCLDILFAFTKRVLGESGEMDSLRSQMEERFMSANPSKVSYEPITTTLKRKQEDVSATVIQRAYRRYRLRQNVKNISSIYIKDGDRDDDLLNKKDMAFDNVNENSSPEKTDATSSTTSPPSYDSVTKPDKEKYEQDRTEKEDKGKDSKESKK
# experimental protocol: hNav1.7 channel assay, whole cell patch clamp, two-pulse protocol
# Type: cell-based
# assay conditions: TP2 (inactivated phase inhibition), HEK293 cells stably expressing human Nav1.7, read-out: Inhibition activity: percent inhibition on the inactivated state of hNav1.7
test readout: inhibition at 10 µM

Some molecules with recorded inhibition at 10 µM:
{"smiles notation": "O=C(NCc1cccc[n+]1[O-])c1cccc(-c2ccc(Cl)cc2)c1", "test readout": "inhibition at 10 µM", "measured result": "70 to 100%"}
{"smiles notation": "O=C(NCc1cccc[n+]1[O-])c1cccc(-c2cccc(OC(F)(F)F)c2)c1", "test readout": "inhibition at 10 µM", "measured result": "40 to 70%"}
{"smiles notation": "CC(C)(O)c1ccc(-c2cccc(C(=O)NCc3cccc[n+]3[O-])c2)cc1", "test readout": "inhibition at 10 µM", "measured result": "70 to 100%"}
{"smiles notation": "O=C(NCc1cccc[n+]1[O-])c1cccc(-c2ccccc2C(F)(F)F)c1", "test readout": "inhibition at 10 µM", "measured result": "40 to 70%"}
{"smiles notation": "O=C(NCc1cccc[n+]1[O-])c1cccc(-c2ccc(C3CC3)cc2)c1", "test readout": "inhibition at 10 µM", "measured result": "40 to 70%"}
{"smiles notation": "O=C(NCc1cccc[n+]1[O-])c1cccc(-c2cccc(Cl)c2)c1", "test readout": "inhibition at 10 µM", "measured result": "40 to 70%"}
{"smiles notation": "O=C(NCc1cccc[n+]1[O-])c1cccc(-c2ccc(F)cc2F)c1", "test readout": "inhibition at 10 µM", "measured result": "40 to 70%"}
{"smiles notation": "O=C(NCc1cccc[n+]1[O-])c1cccc(-c2ccc(F)c(Cl)c2)c1", "test readout": "inhibition at 10 µM", "measured result": "40 to 70%"}

Measured inhibition at 10 µM of `O=C(NCc1cccc[n+]1[O-])c1cccc(-c2cc(F)cc(F)c2)c1` : 70 to 100%

Reported inhibition at 10 µM of `O=C(NCc1cccc[n+]1[O-])c1cccc(-c2cc(F)c(F)c(F)c2)c1` : 10 to 40%

Short answer for `COc1cc(-c2cccc(C(=O)NCc3cccc[n+]3[O-])c2)ccc1C(F)(F)F` : inhibition at 10 µM was 70 to 100%
